Assay: Approximate solvent solubility of amorphous Compound 1 free base by solvent addition (Example 1)
Assay type: physicochemical
Details: 2-Ethoxy ethanol, organic solvent or mixture, thermodynamic from solid; read-out: Approx. Solubility
readoutLabel: solubility

Bench note: what solubility did "C[C@@H]1CCc2ncc(F)cc2[C@H]2CCCN2c2ccn3ncc(c3n2)C(=O)N1" show? 50 mg/mL

----------
Assay: Approximate solvent solubility of amorphous Compound 1 free base by solvent addition (Example 1)
Type: physicochemical
Settings: Tetrahydrofuran, 40 °C, organic solvent or mixture, thermodynamic from solid; read-out: Approx. Solubility
readoutLabel: solubility (mg/mL)
API: value field is a number in mg/mL; no unit string.

Bench note: what solubility did "C[C@@H]1CCc2ncc(F)cc2[C@H]2CCCN2c2ccn3ncc(c3n2)C(=O)N1" show? 20

----------
Molecular target: MDR1 (P-gp) (Homo sapiens, UniProt P08183)
Construct: expressed in transfected cells; host or cells: LLC-PK1 cells
Sequence (P08183 whole entry): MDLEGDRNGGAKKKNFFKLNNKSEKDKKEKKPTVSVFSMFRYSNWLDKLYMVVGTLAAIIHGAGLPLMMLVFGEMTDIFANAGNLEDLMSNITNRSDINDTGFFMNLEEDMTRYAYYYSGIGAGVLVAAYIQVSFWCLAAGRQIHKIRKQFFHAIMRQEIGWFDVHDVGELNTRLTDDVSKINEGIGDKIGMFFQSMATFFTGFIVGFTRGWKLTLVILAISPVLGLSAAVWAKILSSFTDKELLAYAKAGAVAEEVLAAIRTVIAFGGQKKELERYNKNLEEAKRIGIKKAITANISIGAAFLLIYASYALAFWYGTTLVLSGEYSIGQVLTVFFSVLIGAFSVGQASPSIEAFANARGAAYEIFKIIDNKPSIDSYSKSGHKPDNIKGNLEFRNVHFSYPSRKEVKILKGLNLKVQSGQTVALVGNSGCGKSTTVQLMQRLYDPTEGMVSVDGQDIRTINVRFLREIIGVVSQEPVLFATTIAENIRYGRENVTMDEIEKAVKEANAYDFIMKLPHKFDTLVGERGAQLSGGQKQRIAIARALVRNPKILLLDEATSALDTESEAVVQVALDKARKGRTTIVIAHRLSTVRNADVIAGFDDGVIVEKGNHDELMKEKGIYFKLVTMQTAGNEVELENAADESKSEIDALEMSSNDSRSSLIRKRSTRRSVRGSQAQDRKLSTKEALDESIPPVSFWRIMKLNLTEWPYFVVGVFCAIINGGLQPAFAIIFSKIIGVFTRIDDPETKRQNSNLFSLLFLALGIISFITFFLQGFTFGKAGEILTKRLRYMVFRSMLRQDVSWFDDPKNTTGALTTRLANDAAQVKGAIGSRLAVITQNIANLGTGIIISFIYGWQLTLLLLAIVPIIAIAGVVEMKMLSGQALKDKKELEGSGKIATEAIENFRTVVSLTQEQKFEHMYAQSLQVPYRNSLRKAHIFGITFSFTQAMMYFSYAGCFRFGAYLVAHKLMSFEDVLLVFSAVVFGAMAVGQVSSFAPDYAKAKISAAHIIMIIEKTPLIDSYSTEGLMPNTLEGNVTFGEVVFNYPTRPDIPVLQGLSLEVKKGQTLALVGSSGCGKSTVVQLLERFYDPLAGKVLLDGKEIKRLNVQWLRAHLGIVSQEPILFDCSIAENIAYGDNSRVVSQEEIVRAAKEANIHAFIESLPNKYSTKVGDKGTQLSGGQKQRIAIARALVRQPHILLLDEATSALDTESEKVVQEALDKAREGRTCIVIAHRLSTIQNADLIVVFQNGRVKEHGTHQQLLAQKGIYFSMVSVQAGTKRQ
Assay: MDR1 efflux in MDR1 transfected LLC-PK1 cells (Example 35)
Format: in vitro ADME
Conditions: pig, MDR1 transfected LLC-PK1 monolayers, read-out: MDRI efflux ratio
The following compounds are listed with their measured efflux ratio at 2 h, 10 μM values.
When you answer, write just the number.

compound: C[C@@H]1CCc2ncc(F)cc2[C@H]2CCCN2c2ccn3ncc(c3n2)C(=O)N1 [Formula I]
efflux ratio at 2 h, 10 μM: 14

Now examine the next entry.
Bench note: what efflux ratio at 2 h, 10 μM did C[C@H]1CCc2ncc(F)cc2[C@H]2CCCN2c2ccn3ncc(c3n2)C(=O)N1 [formula I′] show? 5

----------
Assay: Approximate solvent solubility of amorphous Compound 1 free base by solvent addition (Example 1)
Format: physicochemical
Conditions: 2-butanone, organic solvent or mixture, thermodynamic from solid; read-out: Approx. Solubility
readoutLabel: solubility (mg/mL)
API: value field is a number in mg/mL; no unit string.

Bench note: what solubility did "C[C@@H]1CCc2ncc(F)cc2[C@H]2CCCN2c2ccn3ncc(c3n2)C(=O)N1" show? 11.1

----------
Experiment: Approximate solvent solubility of amorphous Compound 1 free base by solvent addition (Example 1)
Type: physicochemical
Details: Methylisobutyl ketone, organic solvent or mixture, thermodynamic from solid; read-out: Approx. Solubility
readoutLabel: solubility (µg/mL)
API: value field is a number in µg/mL; no unit string.

Bench note: what solubility did "C[C@@H]1CCc2ncc(F)cc2[C@H]2CCCN2c2ccn3ncc(c3n2)C(=O)N1" show? 6250

----------
Test: Approximate solvent solubility of amorphous Compound 1 free base by solvent addition (Example 1)
Assay type: physicochemical
Conditions: Methanol, organic solvent or mixture, thermodynamic from solid; read-out: Approx. Solubility
readoutLabel: solubility (mg/mL)
API: value field is a number in mg/mL; no unit string.

Bench note: what solubility did "C[C@@H]1CCc2ncc(F)cc2[C@H]2CCCN2c2ccn3ncc(c3n2)C(=O)N1" show? 50

----------
Test: Approximate solvent solubility of amorphous Compound 1 free base by solvent addition (Example 1)
Type: physicochemical
Conditions: Ethanol, organic solvent or mixture, thermodynamic from solid; read-out: Approx. Solubility
readoutLabel: solubility

Bench note: what solubility did C[C@@H]1CCc2ncc(F)cc2[C@H]2CCCN2c2ccn3ncc(c3n2)C(=O)N1 [Compound 1] show? 20 mg/mL

----------
Assay: 1-week stability tests (40° C./75% RH, 80° C., ambient light), XRPD and UPLC
Type: physicochemical
Settings: relative humidity test (40° C./75% RH)
readoutLabel: Average purity after 1-week stability test (UPLC) (%)
API: value field is a number in %; no unit string.

Bench note: what Average purity after 1-week stability test (UPLC) did C[C@@H]1CCc2ncc(F)cc2[C@H]2CCCN2c2ccn3ncc(c3n2)C(=O)N1 [Compound 1] show? 99.2
